Taken from patent US4562183A.

- assay method text: Retention in body organs with time (gas chromatography)
- Type: in vivo, rats
- assay setup: rat, 0.32 mL/100 g; 10 Days; spleen; 0.32 ml. fluorocarbon per 100 gm body weight; read-out: Residual fluorocarbon concentration, spleen
- Experimental: 4. RETENTION OF PERFLUORO-1-AZABICYCLO(5,3,0)DECANE BODY ORGANS WITH TIME Gas chromatography results--rats injected with emulsion of ABCD (0.32 ml. fluorocarbon per 100 gm body weight). The following residual fluorocarbon concentrations were observed. (In mg. fluorocarbon/gm tissue).

molecule | unit abbreviation | concentration at 240 h
FC1(F)N2C(F)(F)C(F)(F)C(F)(F)C2(F)C(F)(F)C(F)(F)C(F)(F)C1(F)F (stereo not shown) [ABCD, perfluoro-1-azabicyclo(5,3,0)decane] | ng/g | 1.2e+08

----------
- assay method text: Retention in body organs with time (gas chromatography)
- Assay type: in vivo, rats
- assay setup: rat, 0.32 mL/100 g; 14 Days (* not Av. of 2); spleen; 0.32 ml. fluorocarbon per 100 gm body weight; read-out: Residual fluorocarbon concentration, spleen

compound | concentration at 336 h / ng/g
FC1(F)N2C(F)(F)C(F)(F)C(F)(F)C2(F)C(F)(F)C(F)(F)C(F)(F)C1(F)F (stereo not shown) | 3.69e+06

----------
- assay method text: Retention in body organs with time (gas chromatography)
- Assay type: in vivo, rats
- assay setup: rat, 0.32 mL/100 g; 14 Days (Av. of 2); heart; 0.32 ml. fluorocarbon per 100 gm body weight; read-out: Residual fluorocarbon concentration, heart
metric: concentration at 336 h (ng/g)

molecule | metric | val
FC1(F)N2C(F)(F)C(F)(F)C(F)(F)C2(F)C(F)(F)C(F)(F)C(F)(F)C1(F)F (stereo not shown) [ABCD, perfluoro-1-azabicyclo(5,3,0)decane] | concentration at 336 h | 180000

----------
- assay method text: Retention in body organs with time (gas chromatography)
- Type: in vivo, rats
- assay setup: rat, 0.32 mL/100 g; 14 Days (Av. of 2); lung; 0.32 ml. fluorocarbon per 100 gm body weight; read-out: Residual fluorocarbon concentration, lung

molecule | concentration at 336 h
FC1(F)N2C(F)(F)C(F)(F)C(F)(F)C2(F)C(F)(F)C(F)(F)C(F)(F)C1(F)F (stereo not shown) | 150000 ng/g

----------
- assay method text: Retention in body organs with time (gas chromatography)
- Format: in vivo, rats
- assay setup: rat, 0.32 mL/100 g; 5 Days; lung; 0.32 ml. fluorocarbon per 100 gm body weight; read-out: Residual fluorocarbon concentration, lung
- Procedure: 4. RETENTION OF PERFLUORO-1-AZABICYCLO(5,3,0)DECANE BODY ORGANS WITH TIME Gas chromatography results--rats injected with emulsion of ABCD (0.32 ml. fluorocarbon per 100 gm body weight). The following residual fluorocarbon concentrations were observed. (In mg. fluorocarbon/gm tissue).
metric: concentration at 120 h (ng/g)

compound | metric | unit abbreviation | val
FC1(F)N2C(F)(F)C(F)(F)C(F)(F)C2(F)C(F)(F)C(F)(F)C(F)(F)C1(F)F (stereo not shown) | concentration at 120 h | ng/g | 560000

----------
- assay method text: Retention in body organs with time (gas chromatography)
- Format: in vivo, rats
- assay setup: rat, 0.32 mL/100 g; 7 Days (Av. of 2); lung; 0.32 ml. fluorocarbon per 100 gm body weight; read-out: Residual fluorocarbon concentration, lung
- Protocol: 4. RETENTION OF PERFLUORO-1-AZABICYCLO(5,3,0)DECANE BODY ORGANS WITH TIME Gas chromatography results--rats injected with emulsion of ABCD (0.32 ml. fluorocarbon per 100 gm body weight). The following residual fluorocarbon concentrations were observed. (In mg. fluorocarbon/gm tissue).
metric: concentration at 168 h (ng/g)

molecule | unit abbreviation | val
FC1(F)N2C(F)(F)C(F)(F)C(F)(F)C2(F)C(F)(F)C(F)(F)C(F)(F)C1(F)F (stereo not shown) | ng/g | 100000
